This collection of values is drawn from ChEMBL document CHEMBL3611971.

Acetylcholinesterase (Electrophorus electricus, UniProt O42275) measurements of pIC50, listed per entry.
Sequence (O42275 whole entry): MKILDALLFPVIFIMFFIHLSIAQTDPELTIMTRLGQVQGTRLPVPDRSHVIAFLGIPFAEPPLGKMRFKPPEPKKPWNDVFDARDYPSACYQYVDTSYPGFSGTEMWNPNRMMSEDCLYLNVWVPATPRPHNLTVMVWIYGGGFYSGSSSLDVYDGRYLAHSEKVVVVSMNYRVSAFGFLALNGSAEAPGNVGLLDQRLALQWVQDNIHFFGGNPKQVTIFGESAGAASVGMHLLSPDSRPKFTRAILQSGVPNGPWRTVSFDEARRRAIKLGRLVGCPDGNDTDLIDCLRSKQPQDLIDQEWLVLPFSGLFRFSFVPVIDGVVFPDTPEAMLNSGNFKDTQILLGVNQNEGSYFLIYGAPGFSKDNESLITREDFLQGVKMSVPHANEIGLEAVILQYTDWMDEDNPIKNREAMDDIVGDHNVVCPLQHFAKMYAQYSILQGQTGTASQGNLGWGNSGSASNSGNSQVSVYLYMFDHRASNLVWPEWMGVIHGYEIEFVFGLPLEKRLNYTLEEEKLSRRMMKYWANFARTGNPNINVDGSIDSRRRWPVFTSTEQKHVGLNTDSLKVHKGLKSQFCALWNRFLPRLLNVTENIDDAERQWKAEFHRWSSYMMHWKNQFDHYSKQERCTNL
Please report pIC50 as the negative decimal logarithm of the molar concentration, giving only the number.

O=C(/C=C/c1cccc(Br)c1)SSC(=O)/C=C/c1cccc(Br)c1; 6.27
Brc1cccc(/C=C/CSSC/C=C/c2cccc(Br)c2)c1; 4.63
O=C(/C=C/c1ccc(Br)cc1)SSC(=O)/C=C/c1ccc(Br)cc1; 6.47
Oc1ccc(/C=C/CSSC/C=C/c2ccc(O)cc2)cc1; 4.91

Q) Could you share what pIC50 was measured for COc1ccc(/C=C/CSSC/C=C/c2ccc(OC)c(OC)c2)cc1OC , tested on Acetylcholinesterase (Electrophorus electricus, UniProt O42275)?
A) 5.96

Q) # returns recorded pIC50 (system: Acetylcholinesterase (Electrophorus electricus, UniProt O42275)) for Clc1cc(Cl)cc(/C=C/CSSC/C=C/c2cc(Cl)cc(Cl)c2)c1
A) 4.19
